Measurement protocol: Induction of apoptosis in mouse bone marrow macrophages assessed as viable cells at 10 uM measured after 4 hrs by Annexin V-FITC/propidium iodide staining-based flow cytometry (reference value: 92 %)
Format: cell-based, BMDM
Measurement context: read-out: Activity
Assay readout: viability at 4 h, 10 µM (%)
Numbers only, in %.

Given the entry "COc1ccc([C@H]2COc3cc(O)ccc3C2)c(O)c1" , report its measured viability at 4 h, 10 µM.
89

###

Measurement protocol: Induction of apoptosis in mouse bone marrow neutrophils assessed as viable cells at 10 uM measured after 4 hrs by Annexin V-FITC/propidium iodide staining-based flow cytometry (reference value: 90.8 %)
Format: cell-based, Neutrophil
Measurement context: read-out: Activity
Assay readout: viability at 4 h, 10 µM (%)
Answers are plain numbers, in %.

Given the molecule "COc1ccc([C@H]2COc3cc(O)ccc3C2)c(O)c1" , what is its reported viability at 4 h, 10 µM?
93.8

// provenance: ChEMBL document CHEMBL4477169
